Test system: Candida albicans
measurementProtocol: Antimicrobial activity against Candida albicans ATCC 90028 assessed as inhibition of microbial growth by CLSI based method
Type: functional, organism-based
readoutKind: IC50

[[record]]
compound = "Cc1cc(O)c2c(c1)C(O)([C@@H]1O[C@@H](C)[C@H](O)[C@@H](O)[C@H]1O)c1ccc([C@H]3c4cccc(O)c4C(=O)c4c(O)cc(C)c(O)c43)c(O)c1C2=O (stereo partly specified)"
testedtarget = "Candida albicans"
val = "> 30 µM"

[[record]]
compound = "COc1cccc(OC)c1C(=O)N[C@@H]1C(=O)N2[C@@H]1SC(C)(C)[C@@H]2C(=O)O"
testedtarget = "Candida albicans"
val = "> 300 µM"

[[record]]
compound = "C[C@@H]1[C@H](O)[C@@H](C)/C=C/C=C/C=C/C=C/C=C/C=C/C=C/[C@H](O[C@@H]2O[C@H](C)[C@@H](O)[C@H](N)[C@@H]2O)C[C@@H]2O[C@](O)(C[C@@H](O)C[C@@H](O)[C@H](O)CC[C@@H](O)C[C@@H](O)CC(=O)O[C@H]1C)C[C@H](O)[C@H]2C(=O)O"
testedtarget = "Candida albicans"
val = "< 0.1 µM"

[[record]]
compound = "CO/N=C(\\C(=O)N[C@@H]1C(=O)N2C(C(=O)O)=C(COC(C)=O)CS[C@H]12)c1csc(N)n1"
testedtarget = "Candida albicans"
val = "> 200 µM"

[[record]]
compound = "CN[C@H](CC(C)C)C(=O)N[C@H]1C(=O)N[C@@H](CC(N)=O)C(=O)N[C@H]2C(=O)N[C@H]3C(=O)N[C@H](C(=O)N[C@H](C(=O)O)c4cc(O)cc(O)c4-c4cc3ccc4O)[C@H](O)c3ccc(c(Cl)c3)Oc3cc2cc(c3O[C@@H]2O[C@H](CO)[C@@H](O)[C@H](O)[C@H]2O[C@H]2C[C@](C)(N)[C@H](O)[C@H](C)O2)Oc2ccc(cc2Cl)[C@H]1O"
testedtarget = "Candida albicans"
val = "> 70 µM"

[[record]]
compound = "C[C@@H](O)[C@H]1C(=O)N2C(C(=O)O)=C(S[C@@H]3CN[C@H](C(=O)N(C)C)C3)[C@H](C)[C@H]12"
testedtarget = "Candida albicans"
val = "> 300 µM"

